- assay.target: Mu-type opioid receptor (Homo sapiens)
- assay.method.text: Antagonist activity at human mu opioid receptor expressed in CHO cells assessed as inhibition of DAMGO-stimulated [35S]GTPgammaS binding
- Type: functional, cell-based
metric.name: Imax

-- ask Form field: reported Imax of `O=C(CCCCCCCCC(=O)Oc1ccc2c(c1)[C@@]13CCCC[C@H]1[C@@H](C2)N(CC1CCC1)CC3)Oc1ccc2c(c1)[C@@]13CCCC[C@H]1[C@@H](C2)N(CC1CCC1)CC3`
-- reply 44%

-- ask # query: Imax of entry `CC(C)(CCCCCCC(C)(C)C(=O)Oc1ccc2c(c1)[C@@]13CCCC[C@H]1[C@@H](C2)N(CC1CCC1)CC3)C(=O)Oc1ccc2c(c1)[C@@]13CCCC[C@H]1[C@@H](C2)N(CC1CCC1)CC3`
-- reply 50%

-- ask Need Imax of `C=CCN1CC[C@]23c4c5ccc(OC(=O)CCCCCCCCC(=O)Oc6ccc7c(c6)[C@@]68CCCC[C@H]6C(C7)N(CC6CCC6)CC8)c4O[C@H]2CCC[C@H]3[C@H]1C5` , thanks.
-- reply 73%

-- ask So what does the record say about Imax for CC(CCCCCCC(C)C(=O)Oc1ccc2c(c1)[C@@]13CCCC[C@H]1[C@@H](C2)N(CC1CCC1)CC3)C(=O)Oc1ccc2c(c1)[C@@]13CCCC[C@H]1[C@@H](C2)N(CC1CCC1)CC3 (stereo not given in full) ?
-- reply 50%

====

- assay.target: Mu-type opioid receptor (Homo sapiens, UniProt P35372)
- Sequence (P35372 whole entry): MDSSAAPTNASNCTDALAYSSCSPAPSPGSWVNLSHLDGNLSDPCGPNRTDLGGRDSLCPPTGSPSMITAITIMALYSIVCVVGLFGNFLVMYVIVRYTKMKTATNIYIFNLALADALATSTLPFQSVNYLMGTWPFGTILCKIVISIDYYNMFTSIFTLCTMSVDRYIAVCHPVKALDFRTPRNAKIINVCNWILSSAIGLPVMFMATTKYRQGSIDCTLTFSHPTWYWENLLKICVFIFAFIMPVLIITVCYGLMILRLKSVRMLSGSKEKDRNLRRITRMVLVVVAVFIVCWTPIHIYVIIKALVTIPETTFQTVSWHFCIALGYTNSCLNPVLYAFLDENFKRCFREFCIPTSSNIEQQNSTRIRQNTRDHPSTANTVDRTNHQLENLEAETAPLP
- assay.method.text: Antagonist activity at human mu opioid receptor expressed in CHO cells assessed as inhibition of DAMGO-stimulated [35S]GTPgammaS binding
- Assay type: functional, cell-based
- applied.conditions: read-out: IC50
Provide the recorded IC50 for the entries that follow.
Give the number; nM is assumed, so skip it.

-- ask Given the entry `CC(C)(CCCCCCC(C)(C)C(=O)Oc1ccc2c(c1)[C@@]13CCCC[C@H]1[C@@H](C2)N(CC1CCC1)CC3)C(=O)Oc1ccc2c(c1)[C@@]13CCCC[C@H]1[C@@H](C2)N(CC1CCC1)CC3` , what IC50 was observed with Mu-type opioid receptor (Homo sapiens, UniProt P35372)?
-- reply 81

-- ask What reported IC50 corresponds to CC(CCCCCCC(C)C(=O)Oc1ccc2c(c1)[C@@]13CCCC[C@H]1[C@@H](C2)N(CC1CCC1)CC3)C(=O)Oc1ccc2c(c1)[C@@]13CCCC[C@H]1[C@@H](C2)N(CC1CCC1)CC3 (stereo partly drawn) on Mu-type opioid receptor (Homo sapiens, UniProt P35372)?
-- reply 140

-- ask Form entry - test system: Mu-type opioid receptor (Homo sapiens, UniProt P35372); read-out: IC50; compound: `C=CCN1CC[C@]23c4c5ccc(OC(=O)CCCCCCCCC(=O)Oc6ccc7c(c6)[C@@]68CCCC[C@H]6C(C7)N(CC6CCC6)CC8)c4O[C@H]2CCC[C@H]3[C@H]1C5`
-- reply 25

====

I'd appreciate it if you could supply Ratio Ki values for the items below.
- Species on record: Homo sapiens
- assay.method.text: Selectivity ratio of Ki for human delta opioid receptor to Ki for human kappa opioid receptor
The response must contain the number and no unit.

-- ask Look at this compound and give its reported Ratio Ki. COC(=O)C(C)CCCCCCC(C)C(=O)Oc1ccc2c(c1)[C@@]13CCCC[C@H]1[C@@H](C2)N(CC1CCC1)CC3 (some centres undefined)
-- reply 45

-- ask Requested read-out: Ratio Ki. Entry: `O=C(CCCCCCCCC(=O)Oc1ccc2c(c1)[C@@]13CCCC[C@H]1[C@@H](C2)N(CC1CCC1)CC3)Oc1ccc2c(c1)[C@@]13CCCC[C@H]1[C@@H](C2)N(CC1CCC1)CC3`
-- reply 90

-- ask What value of Ratio Ki has been reported for the following compound? CC(CCCCC(C)C(=O)Oc1ccc2c(c1)[C@@]13CCCC[C@H]1[C@@H](C2)N(CC1CCC1)CC3)C(=O)Oc1ccc2c(c1)[C@@]13CCCC[C@H]1[C@@H](C2)N(CC1CCC1)CC3 (some centres undefined)
-- reply 23

-- ask Which Ratio Ki value belongs to CC(CCCCCCC(C)C(=O)Oc1ccc2c(c1)[C@@]13CCCC[C@H]1[C@@H](C2)N(CC1CCC1)CC3)C(=O)O (some centres undefined) ?
-- reply 48

-- ask Ratio Ki lookup needed for `CC(C)(CCCCCCC(C)(C)C(=O)Oc1ccc2c(c1)[C@@]13CCCC[C@H]1[C@@H](C2)N(CC1CCC1)CC3)C(=O)Oc1ccc2c(c1)[C@@]13CCCC[C@H]1[C@@H](C2)N(CC1CCC1)CC3` , thanks.
-- reply 32

-- ask Value lookup for Ratio Ki; key = `CC(C)(CCCCCCC(C)(C)C(=O)Oc1ccc2c(c1)[C@@]13CCCC[C@H]1[C@@H](C2)N(CC1CCC1)CC3)C(=O)OCc1ccccc1`
-- reply 45

-- ask Can you share its Ratio Ki? I mean this compound: CC(CCCCCCC(C)C(=O)Oc1ccc2c(c1)[C@@]13CCCC[C@H]1[C@@H](C2)N(CC1CCC1)CC3)C(=O)Oc1ccc2c(c1)[C@@]13CCCC[C@H]1[C@@H](C2)N(CC1CCC1)CC3 (some centres undefined)
-- reply 60

-- ask Sample `C=CCN1CC[C@]23c4c5ccc(OC(=O)CCCCCCCCC(=O)Oc6ccc7c(c6)[C@@]68CCCC[C@H]6C(C7)N(CC6CCC6)CC8)c4O[C@H]2CCC[C@H]3[C@H]1C5` — what was its Ratio Ki?
-- reply 300

-- ask What value of Ratio Ki has been reported for the following compound? `CC(C)(CCCCCCC(C)(C)C(=O)Oc1ccc2c(c1)[C@@]13CCCC[C@H]1[C@@H](C2)N(CC1CCC1)CC3)C(=O)O`
-- reply 22

====

- assay.target: Kappa-type opioid receptor (Homo sapiens, UniProt P41145)
- Sequence (P41145 whole entry): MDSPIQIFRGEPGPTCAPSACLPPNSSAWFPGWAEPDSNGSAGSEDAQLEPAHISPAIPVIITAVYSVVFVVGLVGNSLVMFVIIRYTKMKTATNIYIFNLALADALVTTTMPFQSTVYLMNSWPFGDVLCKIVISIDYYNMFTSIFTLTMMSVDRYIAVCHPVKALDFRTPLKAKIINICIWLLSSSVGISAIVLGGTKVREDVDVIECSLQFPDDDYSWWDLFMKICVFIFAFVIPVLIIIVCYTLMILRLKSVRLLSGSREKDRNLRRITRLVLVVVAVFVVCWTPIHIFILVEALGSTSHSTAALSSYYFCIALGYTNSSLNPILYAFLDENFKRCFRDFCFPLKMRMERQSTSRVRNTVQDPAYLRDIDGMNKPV
- assay.method.text: Agonist activity at human kappa opioid receptor expressed in CHO cells assessed as maximal stimulation of [35S]GTPgammaS binding relatiev to U50488
- Format: functional, cell-based
Would you kindly list Emax for each of these compounds?
Give the number; % is assumed, so skip it.

-- ask Data request, read-out Emax, for CC(CCCCCCC(C)C(=O)Oc1ccc2c(c1)[C@@]13CCCC[C@H]1[C@@H](C2)N(CC1CCC1)CC3)C(=O)Oc1ccc2c(c1)[C@@]13CCCC[C@H]1[C@@H](C2)N(CC1CCC1)CC3 (stereo partly specified)
-- reply 54

-- ask Can you share its Emax? I mean this compound: `O=C(CCCCCCCCC(=O)Oc1ccc2c(c1)[C@@]13CCCC[C@H]1[C@@H](C2)N(CC1CCC1)CC3)Oc1ccc2c(c1)[C@@]13CCCC[C@H]1[C@@H](C2)N(CC1CCC1)CC3`
-- reply 65

-- ask So what does the record say about Emax for `C=CCN1CC[C@]23c4c5ccc(OC(=O)CCCCCCCCC(=O)Oc6ccc7c(c6)[C@@]68CCCC[C@H]6C(C7)N(CC6CCC6)CC8)c4O[C@H]2CCC[C@H]3[C@H]1C5` ?
-- reply 86

-- ask For the compound CC(CCCCCCC(C)C(=O)Oc1ccc2c(c1)[C@@]13CCCC[C@H]1[C@@H](C2)N(CC1CCC1)CC3)C(=O)O (stereo partly specified) , what Emax is on record?
-- reply 58

-- ask Please report the recorded Emax for `O=C(O)CCCCCCCCC(=O)Oc1ccc2c(c1)[C@@]13CCCC[C@H]1[C@@H](C2)N(CC1CCC1)CC3` .
-- reply 75

-- ask Need Emax, item `CC(C)(CCCCCCC(C)(C)C(=O)Oc1ccc2c(c1)[C@@]13CCCC[C@H]1[C@@H](C2)N(CC1CCC1)CC3)C(=O)Oc1ccc2c(c1)[C@@]13CCCC[C@H]1[C@@H](C2)N(CC1CCC1)CC3`
-- reply 60

====

- assay.method.text: Chemical stability at pH 7.4 buffer assessed as hydrolysis half life
- Type: physicochemical
metric.name: t1/2 (h)
Respond with the bare value in h.

-- ask Please give the measured t1/2 for this compound: `CC(C)(CCCCCCC(C)(C)C(=O)Oc1ccc2c(c1)[C@@]13CCCC[C@H]1[C@@H](C2)N(CC1CCC1)CC3)C(=O)Oc1ccc2c(c1)[C@@]13CCCC[C@H]1[C@@H](C2)N(CC1CCC1)CC3`
-- reply 1.68

-- ask Please report the recorded t1/2 for CC(CCCCC(C)C(=O)Oc1ccc2c(c1)[C@@]13CCCC[C@H]1[C@@H](C2)N(CC1CCC1)CC3)C(=O)Oc1ccc2c(c1)[C@@]13CCCC[C@H]1[C@@H](C2)N(CC1CCC1)CC3 (some centres undefined) .
-- reply 3.68

-- ask Find the recorded t1/2 belonging to CC(CCCCCCC(C)C(=O)Oc1ccc2c(c1)[C@@]13CCCC[C@H]1[C@@H](C2)N(CC1CCC1)CC3)C(=O)Oc1ccc2c(c1)[C@@]13CCCC[C@H]1[C@@H](C2)N(CC1CCC1)CC3 (some centres undefined) and report it.
-- reply 1.38

-- ask Which t1/2 is reported for this compound? `O=C(CCCCCCCCC(=O)Oc1ccc2c(c1)[C@@]13CCCC[C@H]1[C@@H](C2)N(CC1CCC1)CC3)Oc1ccc2c(c1)[C@@]13CCCC[C@H]1[C@@H](C2)N(CC1CCC1)CC3`
-- reply 0.767

The values you see were collected from ChEMBL document CHEMBL1154777.
